# Assay info: Degradation assay in human plasma (enzymatic stability)
# Type: in vitro ADME
# Condition context: human blood plasma, 37 °C, after 96 h, read-out: concentration remaining in plasma
Square brackets hold non-standard residues; d marks the D form. Side chains are listed from the residue outwards. Peptide text beside a SMILES is read from it. hArg = N=C(N)NCCCC[C@H](N)C(=O)O; ΔPro = O=C(O)[C@@H]1C=CCN1; Dab = NCC[C@H](N)C(=O)O
Parameter remaining at 96 h: see the listing below.
Reported property: remaining at 96 h

INSERT INTO results (compound, recorded_measurement) VALUES
  ('N=C(N)NCCCC[C@H](NC(=O)[C@@H](N)CS)C(=O)NCCCC[C@H](N)C(=O)N[C@@H](CCN)C(=O)N1CC=C[C@H]1C(=O)N[C@@H](CCCNC(=N)N)C(=O)O [Compound 4, H-Lys(Cys-hArg)-Dab-Dhp-Arg-OH] (H-K([hArg-Cys])[Dab][ΔPro]R-OH)', '~40%'),
  ('N=C(N)NCCCC[C@H](N)C(=O)NCCCC[C@H](NC(=O)[C@@H](N)CS)C(=O)N[C@@H](CCN)C(=O)N1CC=C[C@H]1C(=O)N[C@@H](CCCNC(=N)N)C(=O)O [Compound 3, H-Cys-Lys(hArg)-Dab-Dhp-Arg-OH] (H-CK(hArg)[Dab][ΔPro]R-OH)', '~20%');
